System: DIV17
experimental.details: qHTS profiling for inhibitors of Plasmodium falciparum proliferation (AID 504749); also: nearly all actives have a fitted effect of over 60% in size
condition.notes: P. falciparum in erythrocytes, SYBR Green DNA, 72 h; series mostly up to 28.7 µM
Inconclusive results are not listed. Active and inactive are the calls of the source. Calls follow the shape of the dose curve; as a rule, active = well fitted inhibition curve with a large enough effect; inconclusive = small, poorly fitted or top-dose-only effect; inactive = flat fitted curve, though single readings scatter.
Output constraint: value belongs to TRUE = active, FALSE = inactive

Worked examples follow.
{"query.smiles": "CC(C)(C(=O)c1cccnc1)c1cccnc1", "label.value": "FALSE"}
{"query.smiles": "O=C(O)c1cc2cc(Cc3cccnc3)ccc2o1", "label.value": "FALSE"}
{"query.smiles": "CCCOC(C(=O)OC1CCN(C)CC1)(c1ccccc1)c1ccccc1", "label.value": "TRUE"}

# input Identify the outcome logged in this assay for the molecule shown: "Cc1c(C(C)C)c(=O)n(-c2ccccc2)n1C"
# output FALSE

====

Test system: CP217
experimental.details: qHTS profiling for inhibitors of Plasmodium falciparum proliferation (AID 504749); also: nearly all actives have a fitted effect of over 60% in size
condition.notes: P. falciparum in erythrocytes, SYBR Green DNA, 72 h; series mostly up to 28.7 µM
Inconclusive results are not listed. Calls of active or inactive are those of the source. Calls come from the whole dose curve; as a rule, active = well fitted inhibition curve with a large enough effect; inconclusive = small, poorly fitted or top-dose-only effect; inactive = flat fitted curve, though single readings scatter. Numbered stars: 1 amine (or outer) side, 2 acyl side, 3 side chain; on linkers, the order of the positions; unused ones are H or OH. Bridge positions count the residues as written; N and C are the ends. Square brackets hold non-standard residues; d marks the D form. Peptide text beside a SMILES is read from it. I, II: the chains in the order shown. Actinocin(9to1) = Cc1c2oc3c(C)ccc(C(=O)[*:1])c3nc-2c(C(=O)[*:2])c(N)c1=O; NMeV = CN[C@H](C(=O)O)C(C)C; Sar = CNCC(=O)O
Parameter call: string, one of active, inactive

Please review the following examples before continuing.
{"molecule": "C[C@@H]1C(=O)NC2=Nc3cccc(Cl)c3CN21", "label.value": "inactive"}
{"molecule": "CCCCC(CC)CN=C(N)NC(N)=NCCCCCCN=C(N)NC(N)=NCC(CC)CCCC (stereo unspecified)", "label.value": "active"}
{"molecule": "CN=C(NC#N)NCCSCc1csc(N=C(N)N)n1", "label.value": "inactive"}

# input Per the records of this test, what outcome belongs to Cc1c2oc3c(C)ccc(C(=O)N[C@@H]4C(=O)N[C@H](C(C)C)C(=O)N5CCC[C@H]5C(=O)N(C)CC(=O)N(C)[C@@H](C(C)C)C(=O)O[C@@H]4C)c3nc-2c(C(=O)N[C@@H]2C(=O)N[C@H](C(C)C)C(=O)N3CCC[C@H]3C(=O)N(C)CC(=O)N(C)[C@@H](C(C)C)C(=O)O[C@@H]2C)c(N)c1=O (I: T[dV]P[Sar][NMeV] / II: T[dV]P[Sar][NMeV]; ester I:1-I:C, II:1-II:C; linker I:N-II:N via Actinocin(9to1)) ?
# output active

# input Do the same for "CC(C)(CO)[C@@H](O)C(=O)NCCCO" please
# output inactive

# input Queued: "NCCc1ccn[nH]1"
# output inactive

# input And the next one, "COc1ccc(/C=C/C(=O)c2ccc(OC)cc2OC)cc1" ?
# output active

# input Please answer likewise for "Cc1cccn2c(=O)c(-c3nnn[nH]3)cnc12"
# output inactive

# input What do you have for "CC/C(=C(/CC)c1ccc(O)cc1)c1ccc(O)cc1" ?
# output inactive

# input Subsequent entry: "Cc1ccc(O)c2ncccc12"
# output inactive

# input Let us now turn to "C[C@@H]1C[C@H]2[C@@H]3CCC4=CC(=O)C=C[C@]4(C)[C@@]3(F)[C@@H](O)C[C@]2(C)[C@H]1C(=O)CO"
# output inactive
